Value source: patent US20240335385A1

# RUN DESCRIPTION: LNP hydrodynamic diameter and polydispersity index by dynamic light scattering (DLS)
# Type: physicochemical
# CONDITION INFO: LNP of 47.5% Ionizable Lipid:40% cholesterol:2.5% PEG-2000 DMG:10% DPSC, N/P ratio 4-8
PROPERTY LABEL: Mean Diameter (nm)

COMPOUND: CCCCC/C=C\C/C=C\CCCCCCCC(=O)OCCC(CCOC(=O)CCC(OCCCCCCCC)OCCCCCCCC)OC(=O)OCCCN(C)CC (stereo not shown)
RESULT UNIT: nm
Mean Diameter (nm): 86.0

COMPOUND: CC/C=C\CCCCOC(CCC(=O)OCCCC(CCCOC(=O)CCCCCCC/C=C\C/C=C\CCCCC)OC(=O)OCC1CCCN(CC)C1)OCCCC/C=C\CC (stereo not shown)
RESULT UNIT: nm
Mean Diameter (nm): 90.0

COMPOUND: CCCCC/C=C\C/C=C\CCCCCCCC(=O)OCCC(CCOC(=O)CCC(OCCCCCCCC)OCCCCCCCC)OC(=O)CCCN1CCCC1 (stereo not shown)
RESULT UNIT: nm
Mean Diameter (nm): 80.8

COMPOUND: CC/C=C\CCCCOC(CCC(=O)OCCC(CCOC(=O)CCC(OCCCC/C=C\CC)OCCCC/C=C\CC)OC(=O)OCCCN(CC)CC)OCCCC/C=C\CC
RESULT UNIT: nm
Mean Diameter (nm): 99.7

COMPOUND: CCCCCCCCOC(CCC(=O)OCCC(CCOC(=O)CCC(OCCCCCCCC)OCCCCCCCC)OC(=O)OCC1CCCN(CC)C1)OCCCCCCCC (stereo not shown)
RESULT UNIT: nm
Mean Diameter (nm): 80.0

COMPOUND: CC/C=C\CCCCOC(CCC(=O)OCCC(CCOC(=O)CCC(OCCCC/C=C\CC)OCCCC/C=C\CC)OC(=O)OCCCN(C)C)OCCCC/C=C\CC
RESULT UNIT: nm
Mean Diameter (nm): 92.9

COMPOUND: CC/C=C\CCCCOC(CCC(=O)OCCCCC(CCCCOC(=O)CCC(OCCCC/C=C\CC)OCCCC/C=C\CC)OC(=O)OCC1CCCN(CC)C1)OCCCC/C=C\CC (stereo not shown)
RESULT UNIT: nm
Mean Diameter (nm): 94.4

COMPOUND: CC/C=C\CCCCOC(CCC(=O)OCCC(CCOC(=O)CCCCCCC/C=C\C/C=C\CCCCC)OC(=O)OCCCN(C)CC)OCCCC/C=C\CC (stereo not shown)
RESULT UNIT: nm
Mean Diameter (nm): 91.0

COMPOUND: CC/C=C\CCCCOC(CCC(=O)OCCC(CCOC(=O)CCCCCCC/C=C\C/C=C\CCCCC)OC(=O)OCCCN(C)C)OCCCC/C=C\CC (stereo not shown)
RESULT UNIT: nm
Mean Diameter (nm): 88.8

COMPOUND: CC/C=C\CCCCOC(CCC(=O)OCCCCC(CCCCOC(=O)CCCCCCC/C=C\C/C=C\CCCCC)OC(=O)OCC1CCCN(CC)C1)OCCCC/C=C\CC (stereo not shown)
RESULT UNIT: nm
Mean Diameter (nm): 80.3

COMPOUND: CCCCC/C=C\C/C=C\CCCCCCCC(=O)OCCC(CCOC(=O)CCC(OCCCCCCCC)OCCCCCCCC)OC(=O)OCCCN(CC)CC (stereo not shown)
RESULT UNIT: nm
Mean Diameter (nm): 85.0

COMPOUND: CC/C=C\CCCCOC(CCC(=O)OCCC(CCOC(=O)CCC(OCCCC/C=C\CC)OCCCC/C=C\CC)OC(=O)OCCCN(C)CC)OCCCC/C=C\CC
RESULT UNIT: nm
Mean Diameter (nm): 110.4

COMPOUND: CCCCC/C=C\C/C=C\CCCCCCCC(=O)OCCC(CCOC(=O)CCC(OCCCCCCCC)OCCCCCCCC)OC(=O)OCCCN(C)C (stereo not shown)
RESULT UNIT: nm
Mean Diameter (nm): 84.3

---

# RUN DESCRIPTION: RNA encapsulation efficiency of LNPs by Ribogreen assay
# Format: physicochemical
# CONDITION INFO: LNP of 47.5% Ionizable Lipid:40% cholesterol:2.5% PEG-2000 DMG:10% DPSC, N/P ratio 4-8
PROPERTY LABEL: Mean Encapsulation Efficiency (%)

MOLECULE: CCCCC/C=C\C/C=C\CCCCCCCC(=O)OCCC(CCOC(=O)CCC(OCCCCCCCC)OCCCCCCCC)OC(=O)OCCCN(CC)CC (stereo not shown)
Mean Encapsulation Efficiency (%): 86.5
--
MOLECULE: CC/C=C\CCCCOC(CCC(=O)OCCC(CCOC(=O)CCCCCCC/C=C\C/C=C\CCCCC)OC(=O)OCCCN(CC)CC)OCCCC/C=C\CC (stereo not shown)
Mean Encapsulation Efficiency (%): 87.2
--
MOLECULE: CC/C=C\CCCCOC(CCC(=O)OCCC(CCOC(=O)CCC(OCCCC/C=C\CC)OCCCC/C=C\CC)OC(=O)OCCCN(C)C)OCCCC/C=C\CC
Mean Encapsulation Efficiency (%): 89.0
--
MOLECULE: CC/C=C\CCCCOC(CCC(=O)OCCC(CCOC(=O)CCC(OCCCC/C=C\CC)OCCCC/C=C\CC)OC(=O)OCCCN(CC)CC)OCCCC/C=C\CC
Mean Encapsulation Efficiency (%): 91.3

---

# RUN DESCRIPTION: RNA encapsulation efficiency of LNPs by Ribogreen assay
# Format: physicochemical
# CONDITION INFO: LNP of 47.5% Ionizable Lipid:40% cholesterol:2.5% PEG-2000 DMG:10% DPSC, N/P ratio 4-8
PROPERTY LABEL: Mean Encapsulation Efficiency (%)

COMPOUND: CCCCC/C=C\C/C=C\CCCCCCCC(=O)OCCC(CCOC(=O)CCC(OCCCCCCCC)OCCCCCCCC)OC(=O)OCCCN(C)C (stereo not drawn) [Example 7-14]
Mean Encapsulation Efficiency (%): 87.2
--
COMPOUND: CCCCC/C=C\C/C=C\CCCCCCCC(=O)OCCC(CCOC(=O)CCC(OCCCCCCCC)OCCCCCCCC)OC(=O)CCCN1CCCC1 (stereo not drawn) [Example 7-15]
Mean Encapsulation Efficiency (%): 87.0
--
COMPOUND: CC/C=C\CCCCOC(CCC(=O)OCCCCC(CCCCOC(=O)CCCCCCC/C=C\C/C=C\CCCCC)OC(=O)OCC1CCCN(CC)C1)OCCCC/C=C\CC (stereo not drawn) [Example 7-41]
Mean Encapsulation Efficiency (%): 84.3

---

# RUN DESCRIPTION: RNA encapsulation efficiency of LNPs by Ribogreen assay
# Assay type: physicochemical
# CONDITION INFO: LNP of 47.5% Ionizable Lipid:40% cholesterol:2.5% PEG-2000 DMG:10% DPSC, N/P ratio 4-8
PROPERTY LABEL: Mean Encapsulation Efficiency (%)

COMPOUND: CC/C=C\CCCCOC(CCC(=O)OCCC(CCOC(=O)CCCCCCC/C=C\C/C=C\CCCCC)OC(=O)OCCCN(C)C)OCCCC/C=C\CC (stereo not drawn)
PROPERTY LABEL: Mean Encapsulation Efficiency (%)
RESULT UNIT: %
RECORDED VALUE: 86.3
//
COMPOUND: CC/C=C\CCCCOC(CCC(=O)OCCCCC(CCCCOC(=O)CCC(OCCCC/C=C\CC)OCCCC/C=C\CC)OC(=O)OCC1CCCN(CC)C1)OCCCC/C=C\CC (stereo not drawn)
PROPERTY LABEL: Mean Encapsulation Efficiency (%)
RESULT UNIT: %
RECORDED VALUE: 85.1
//
COMPOUND: CCCCCCCCOC(CCC(=O)OCCC(CCOC(=O)CCC(OCCCCCCCC)OCCCCCCCC)OC(=O)OCCCN(C)CC)OCCCCCCCC
PROPERTY LABEL: Mean Encapsulation Efficiency (%)
RESULT UNIT: %
RECORDED VALUE: 90.0

---

# RUN DESCRIPTION: LNP hydrodynamic diameter and polydispersity index by dynamic light scattering (DLS)
# Format: physicochemical
# CONDITION INFO: LNP of 47.5% Ionizable Lipid:40% cholesterol:2.5% PEG-2000 DMG:10% DPSC, N/P ratio 4-8
PROPERTY LABEL: Mean Diameter (nm)

COMPOUND: CC/C=C\CCCCOC(CCC(=O)OCCC(CCOC(=O)CCCCCCC/C=C\C/C=C\CCCCC)OC(=O)OCCCN(CC)CC)OCCCC/C=C\CC (stereo not drawn) [Example 7-2]
PROPERTY LABEL: Mean Diameter (nm)
RECORDED VALUE: 96.4

COMPOUND: CCCCCCCCOC(CCC(=O)OCCC(CCOC(=O)CCC(OCCCCCCCC)OCCCCCCCC)OC(=O)OCCCN(C)CC)OCCCCCCCC [Example 7-18]
PROPERTY LABEL: Mean Diameter (nm)
RECORDED VALUE: 76.7

COMPOUND: CCCCC/C=C\C/C=C\CCCCCCCC(=O)OCCC(CCOC(=O)CCC(OCCCCCCCC)OCCCCCCCC)OC(=O)OCC1CCCN(CC)C1 (stereo not drawn) [Example 7-11]
PROPERTY LABEL: Mean Diameter (nm)
RECORDED VALUE: 76.5
